- ASSAY_NAME: qHTS of pediatric cancer cell lines to identify multiple opportunities for drug repurposing: Primary screen for RD cells (AID 1347104); also: nearly all actives have a fitted effect of over 55% in size
- STUDY_CONDITIONS: RD rhabdomyosarcoma viability, CellTiter-Glo luminescence, 48 h; series mostly up to 46 µM
Records with an inconclusive call do not appear. The source made the active and inactive calls. Calls follow the shape of the dose curve; as a rule, active = well fitted cell-killing curve with a large enough effect; inconclusive = small, poorly fitted or top-dose-only effect; inactive = flat fitted curve, though single readings scatter.
Hi! Could you answer with just one of these? Yes = active, No = inactive

Query: recorded result category for `O=c1[nH]nc(OCCCc2ccc(Cl)cc2)c(NCc2cccnc2)c1Br` in this test
Yes

Fill in: this test's call for `N[C@@H](CC(=O)N1CCn2c(nnc2C(F)(F)F)C1)Cc1cc(F)c(F)cc1F` is ___
No

Which outcome did this test record for the molecule `CC(C)(C)c1[nH]cnc1C=c1[nH]c(=O)c(=Cc2ccccc2)[nH]c1=O` ?
Yes

For this molecule, state the assay outcome: `Cc1ccc2c(=O)c3cccc(CC(=O)O)c3oc2c1C`
Yes

Dear colleague, could you share the recorded outcome for `Cc1ccccc1-n1c(Cn2nc(-c3cccc(O)c3)c3c(N)ncnc32)nc2cccc(C)c2c1=O` when you have a moment?
Yes

Status in this test for `CC(C)=CCCC(C)=CCCC(C)=CCCC(C)=CCCC(C)=CCCC(C)=CCCC(C)=CCCC(C)=CCCC(C)=CCO` ?
No

Returns: the outcome recorded for `O=S(=O)(NCCNCC=Cc1ccc(Br)cc1)c1cccc2cnccc12` in this assay.
Yes

// return assay outcome for `Cc1ccc(NC(=O)c2ccc(CN3CCN(C)CC3)cc2)cc1Nc1nc(-c2cccnc2)cs1`
Yes

Tell me the assay call for CNC1CCC(N(Cc2cccc(-c3ccncc3)c2)C(=O)c2sc3ccccc3c2Cl)CC1 (stereo not given) please.
Yes

Recorded test call requested for `Cc1cnc(Nc2cccc(CN3CCOCC3)c2)nc1Nc1cccc(S(=O)(=O)NC(C)(C)C)c1`
Yes

Entry `c1ccc(-c2oc3ncnc(NC[C@@H]4CCCO4)c3c2-c2ccccc2)cc1` : call = ?
Yes

Field: outcome | Entry: `NC(=O)c1ccc(N(C(N)=O)c2c(F)cccc2F)nc1-c1ccc(F)cc1F`
No

Test call for this molecule, please: `CCCCC[C@H](O)C=C[C@H]1[C@H](O)CC(=O)[C@H]1CC=CCCCC(=O)O`
No

# fetch the recorded call for `CC(C)Oc1cc(Nc2nc(N[C@@H](C)c3ccc(F)cn3)ncc2Cl)[nH]n1` here
Yes

Per the assay record, what outcome was assigned to NCC1CCC(C(=O)O)CC1 (stereo not given) ?
No

What call does the record list for `COC(=O)Nc1ccc(-c2nc(N3CCOCC3)c3cnn(C4CCN(C(=O)OC)CC4)c3n2)cc1` ?
Yes

Hi, do you know how `CN(CC=CC#CC(C)(C)C)Cc1cccc2ccccc12` came out in this test?
No

Recorded test outcome, item C[C@@H]1O[C@@H](O[C@H]2CC[C@@]3(C)[C@H](CC[C@@H]4[C@H]3C[C@@H](O)[C@]3(C)[C@@H](C5=CC(=O)OC5)CC[C@]43O)C2)C[C@H](O)[C@@H]1O[C@H]1C[C@H](O)[C@H](O[C@H]2C[C@H](O)[C@@H](O)[C@@H](C)O2)[C@H](C)O1 (stereo in doubt)
Yes

Field: outcome | Entry: `C[C@@H](O)[C@H]1C(=O)N2C(C(=O)OCOC(=O)C(C)(C)C)=C(SC3CN(C4=NCCS4)C3)[C@H](C)[C@H]12`
No

State the result this test recorded for `Cc1ccc(S(=O)(=O)Nc2nc3ccccc3nc2Nc2ccc3nsnc3c2)cc1` .
Yes

Please share the test call associated with `CC(=O)O[C@]1(C(C)=O)CC[C@H]2[C@@H]3C=C(Cl)C4=CC(=O)[C@@H]5C[C@H]5[C@]4(C)[C@@H]3CC[C@@]21C` .
Yes

For `CN1CC(=O)NC1=NC(=O)Nc1cccc(Cl)c1` , which call appears in the assay record?
No

GET /call?item= COC1CCC(C(=O)c2ccc3nc4c(cc3c2)CCCO4)CC1 (stereo not given) returns the recorded outcome of this test.
Yes

Recorded call for CN1[C@H]2CC[C@H]1CC(OC(=O)c1c[nH]c3ccccc13)C2 (stereo not given in full) ?
No

Assay result, entry `CC(C)C[C@H](NC(=O)c1cc2ccccc2s1)C(=O)N1CCN(C(=O)[C@H](CO)NS(=O)(=O)c2ccc(Cl)cc2Cl)CC1` — outcome?
Yes

----------
- ASSAY_NAME: Quantitative High-Throughput drug screen in 47 multiple myeloma cell lines against the NCATS MIPE library collection: OPM1_PLB cell viability assay (AID 1918989); also: nearly all actives have a fitted effect of over 40% in size
- STUDY_CONDITIONS: CellTiter-Glo, 48 h; series mostly up to 45.8 µM
- Excerpt: PI: Beverly A. Mock Ph.D. Laboratory of Cancer Biology and Genetics, Center for Cancer Research, National Cancer Institute, National Institute of Health, Bethesda, Maryland […] 5; Detector; 425V; Luminescence; Viewlux PerkinElmer. […] 1. […] Briefly, the corresponding myeloma cell lines were screened in 1,536-well plates with 500 cells, 5-uL per well for inhibition of cell viability (assessed by measuring ATP levels with CellTiterGlo). […]
Results filed as inconclusive are left out. The source made the active and inactive calls. Calls come from the whole dose curve; as a rule, active = well fitted cell-killing curve with a large enough effect; inconclusive = small, poorly fitted or top-dose-only effect, or effect the other way; inactive = no such curve, though single readings can be large or run the other way.
Parameter call: string, one of yes (1) (active), no (0) (inactive)

Which outcome was assigned to `COc1ccc(CCC(=O)Nc2nc3ccc(Cl)cc3s2)cc1OC` in this test?
no (0)

Outcome? `Cc1ccc(S(=O)(=O)OCC(=O)Nc2ccc(C(=O)O)c(O)c2)cc1`
no (0)

Name the outcome recorded for COc1nccc(-c2c(-c3ccc(F)cc3)ncn2C2CCC(O)CC2)n1 (stereo unspecified) in the assay.
yes (1)

What outcome does the record of this test show for `CC(C)[C@H](O)C(=O)N[C@@H](C)C(=O)N[C@@H]1C(=O)N(C)CCc2ccccc21` ?
no (0)

Assay outcome for `CC(C)(C)c1nc(-c2cccc(NS(=O)(=O)c3c(F)cccc3F)c2F)c(-c2ccnc(N)n2)s1` : what was it?
yes (1)

Per the records of this test, what outcome belongs to `O=C(Nc1ccccc1)Nc1ccc(-c2ccc(C(=O)[C@H]3CCC[C@H]3C(=O)O)cc2)cc1` ?
no (0)

# lookup: test call for `CC(C)c1c(C(=O)Nc2ccccc2)c(-c2ccccc2)c(-c2ccc(F)cc2)n1CC[C@H](O)C[C@@H](O)CC(=O)O`
yes (1)

// outcome(item) with item = `CNc1nc(-c2ccc3c(N)n[nH]c3c2)cc(N2C[C@@H](C(=O)NC3CCCCC3)CC[C@@H]2C)n1`
yes (1)

Which outcome was entered for the compound `Cc1[nH]c(C=C2C(=O)Nc3ccc(S(=O)(=O)N(C)c4cccc(Cl)c4)cc32)c(C)c1C(=O)N1CCN(C)CC1` in this test?
yes (1)

Which result was noted for this compound in the test: `CC(=O)N1CCN(c2ccc(OCc3nn(C)c(C)c3-c3cccc4c(CCCOc5cc(C)c(Cl)c(C)c5)c(C(=O)O)n(Cc5cccnc5)c34)cc2)CC1`
yes (1)

What classification did `CN1CCN(c2cccc(Nc3nc4c(-c5ccc(S(C)(=O)=O)cc5)cccn4n3)c2)CC1` end up with in this test?
yes (1)

----------
- ASSAY_NAME: Quantitative High-Throughput drug screen in 47 multiple myeloma cell lines against the NCATS MIPE library collection: LP1_DSMZ cell viability assay (AID 1918982); also: nearly all actives have a fitted effect of over 35% in size
- STUDY_CONDITIONS: LP1 myeloma viability, CellTiter-Glo ATP luminescence, 48 h; series mostly up to 45.8 µM
Results filed as inconclusive are left out. The source made the active and inactive calls. Calls follow the shape of the dose curve; as a rule, active = well fitted cell-killing curve with a large enough effect; inconclusive = small, poorly fitted or top-dose-only effect, or effect the other way; inactive = no such curve, though single readings can be large or run the other way.
Write down one outcome, taken from 1.0 = active, 0.0 = inactive

Assay outcome for CC1CNc2c(cccc2S(=O)(=O)N[C@@H](CCCN=C(N)N)C(=O)N2CC[C@@H](C)C[C@@H]2C(=O)O)C1 (stereo partly specified) : what was it?
0.0

How did this test come out for `Cc1ccc(S(=O)(=O)OCC(=O)Nc2ccc(C(=O)O)c(O)c2)cc1` ?
0.0

I'd appreciate the recorded outcome for `CCOC(=O)N1CCN([N+]([O-])=NOc2cc(ON=[N+]([O-])N3CCN(C(=O)OCC)CC3)c([N+](=O)[O-])cc2[N+](=O)[O-])CC1` from this test.
1.0

Dear all, I need the recorded test outcome for `O=C(O)C1=CO[C@@H](O[C@@H]2O[C@H](CO)[C@H](O)[C@H](O)[C@H]2O)[C@@H]2C(CO)=CC[C@H]12` , thank you.
0.0

State the result this test recorded for `CNC(=O)c1cc(Oc2ccc(NC(=O)Nc3ccc(Cl)c(C(F)(F)F)c3)c(F)c2)ccn1` .
1.0

Each molecule tested received a call. Report the one for CCNC(=O)CCCC=CC[C@@H]1[C@H](C=CC(O)CCc2ccccc2)[C@@H](O)C[C@@H]1O (stereo partly specified) .
0.0

I would be grateful if you could indicate the recorded call for `CCCCOCCOc1nc(-c2ccc(C(=O)O)c(F)c2)sc1C` .
0.0

For `CN[C@H]1[C@@H](O[C@@H]2[C@H](O[C@@H]3[C@@H](O)[C@@H](O)[C@@H](N=C(N)N)[C@@H](O)[C@@H]3N=C(N)N)O[C@H](C)[C@@]2(O)C=O)O[C@@H](CO)[C@@H](O)[C@H]1O` , which call appears in the assay record?
0.0

// outcome(item) with item = `COc1cc2ncn(-c3cc(OCc4ccccc4S(C)(=O)=O)c(C#N)s3)c2cc1OC`
0.0

For `N=C1SC(=Cc2ccc(-c3ccc4c(c3)C(=O)NC4=O)o2)C(=O)N1c1ccc(Br)cc1` , what call appears in the results of this test?
1.0

Per the records of this test, what outcome belongs to `Cn1cc(-c2ccc3nnc(Sc4ccc5ncccc5c4)n3n2)cn1` ?
1.0
